assay-metric: melting point

## Task Consider the compound CCOc1cc2c(Nc3cc(OC)c(Cl)cc3Cl)c(C#N)cnc2cc1OCCCC1CCN(C)CC1 . State its measured melting point.
## Result 148 to 151 °C

## Task Consider the compound CCOc1cc2c(Nc3cc(OC)c(Cl)cc3Cl)c(C#N)cnc2cc1OCCN1CCN(C)CC1 . State its measured melting point.
## Result 141 to 143 °C

## Task Consider the compound CCOc1cc2c(Nc3cc(OC)c(Cl)cc3Cl)c(C#N)cnc2cc1OCCC1CCN(C)CC1 . State its measured melting point.
## Result 174 to 176 °C

## Task Consider the compound CCN1CCC(COc2cc3ncc(C#N)c(Nc4cc(OC)c(Cl)cc4Cl)c3cc2OC)CC1 . State its measured melting point.
## Result 192 to 195 °C

## Task Consider the compound CCOc1cc2c(Nc3cc(OC)c(Cl)cc3Cl)c(C#N)cnc2cc1OCCCN1CCN(C)CC1 . State its measured melting point.
## Result 137 to 138 °C

## Task Consider the compound COc1cc(Nc2c(C#N)cnc3cc(OCCN4CCN(C)CC4)c(OC)cc23)c(Cl)cc1Cl . State its measured melting point.
## Result 165 to 167 °C

## Task Consider the compound CCOc1cc2c(Nc3cc(OC)c(Cl)cc3Cl)c(C#N)cnc2cc1OCCCN1CCN(CC)CC1 . State its measured melting point.
## Result 127 to 130 °C
